Numbers sourced from paper PMC6072100.

Measurement Notes: Cytotoxicity assay with HepG2 (alamarBlue)
Assay type: cell-based, human
Measurement Conditions: human, HepG2 cells, dose that kills 50% of cells; 2–100 μM, 1 h with compound then 24 h, alamarBlue; read-out: ED50 HepG2
Square brackets hold non-standard residues; d marks the D form. Peptide text beside a SMILES is read from it. Nspe = C[C@H](NCC(=O)O)c1ccccc1; Nlys = NCCCCNCC(=O)O
Observed Property: CC50 at 24 h (µM)
Numbers only, in µM.

Molecule	CC50 at 24 h [µM]
C[C@@H](c1ccccc1)N(CC(N)=O)C(=O)CN(C(=O)CN(CCN)C(=O)CN(C(=O)CN(C(=O)CN(CCN)C(=O)CN(C(=O)CN(C(=O)CNCCN)[C@@H](C)c1ccccc1)[C@@H](C)c1ccccc1)[C@@H](C)c1ccccc1)[C@@H](C)c1ccccc1)[C@@H](C)c1ccccc1 [Peptoid 17, (NaeNspeNspe)3]	100

Next up:
Requested read-out: CC50 at 24 h. Entry: C[C@@H](c1ccccc1)N(CC(N)=O)C(=O)CN(C(=O)CN(CCCCN)C(=O)CN(C(=O)CN(C(=O)CN(CCCCN)C(=O)CN(C(=O)CN(C(=O)CNCCCCN)[C@@H](C)c1ccccc1)[C@@H](C)c1ccccc1)[C@@H](C)c1ccccc1)[C@@H](C)c1ccccc1)[C@@H](C)c1ccccc1 [Peptoid 14, (NLysNspeNspe)3] (H-[Nlys][Nspe][Nspe][Nlys][Nspe][Nspe][Nlys][Nspe][Nspe]-NH2) 100

====

Measurement Notes: Skin cell toxicity assay with HaCaT (alamarBlue)
Format: cell-based, human
Measurement Conditions: human, HaCaT cells (keratinocytes), ED50 HaCaT
Square brackets hold non-standard residues; d marks the D form. Peptide text beside a SMILES is read from it. Gly(Nα-4-Cl-benzyl) = O=C(O)CNCc1ccc(Cl)cc1; Nlys = NCCCCNCC(=O)O
Observed Property: CC50 at 24 h

Param item = NCCCCNCC(=O)N(CC(=O)N(CC(=O)N(CCCCN)CC(=O)N(CC(=O)N(CC(=O)N(CCCCN)CC(=O)N(CC(=O)N(CC(N)=O)Cc1ccc(Cl)cc1)Cc1ccc(Cl)cc1)Cc1ccc(Cl)cc1)Cc1ccc(Cl)cc1)Cc1ccc(Cl)cc1)Cc1ccc(Cl)cc1 [Peptoid 21, (NLysNpcbNpcb)3] (H-[Nlys][Gly(Nα-4-Cl-benzyl)][Gly(Nα-4-Cl-benzyl)][Nlys][Gly(Nα-4-Cl-benzyl)][Gly(Nα-4-Cl-benzyl)][Nlys][Gly(Nα-4-Cl-benzyl)][Gly(Nα-4-Cl-benzyl)]-NH2) ; retrieve measured CC50 at 24 h. 22 µM

====

Tested on: HaCaT cells
Measurement Notes: Skin cell toxicity assay with HaCaT (alamarBlue)
Assay type: cell-based, human
Measurement Conditions: human, HaCaT cells (keratinocytes), 24 h
Square brackets hold non-standard residues; d marks the D form. Peptide text beside a SMILES is read from it. Gly(N-(CH2)6NH2) = NCCCCCCNCC(=O)O; Gly(N-2-aminoethyl) = NCCNCC(=O)O; Nspe = C[C@H](NCC(=O)O)c1ccccc1; NhArg = N=C(N)NCCCCNCC(=O)O; Nphe = O=C(O)CNCc1ccccc1
Observed Property: ED50 HaCaT

Compound	Target Or System	ED50 HaCaT
C[C@@H](c1ccccc1)N(CC(N)=O)C(=O)CN(C(=O)CN(CCCCN)C(=O)CN(Cc1ccc(F)cc1)C(=O)CN(Cc1ccc(F)cc1)C(=O)CN(CCCCN)C(=O)CN(C(=O)CN(C(=O)CN(CCCCN)C(=O)CN(Cc1ccc(F)cc1)C(=O)CN(Cc1ccc(F)cc1)C(=O)CNCCCCN)[C@@H](C)c1ccccc1)[C@@H](C)c1ccccc1)[C@@H](C)c1ccccc1 [Peptoid 28, [(NLysNpfbNpfb)(NLysNspeNspe)]2]	HaCaT cells	>100 µM
N=C(N)NCCCCNCC(=O)N(CC(=O)N(CC(=O)N(CCCCNC(=N)N)CC(=O)N(CC(=O)N(CC(=O)N(CCCCNC(=N)N)CC(=O)N(CC(=O)N(CC(=O)N(CCCCNC(=N)N)CC(=O)N(CC(=O)N(CC(N)=O)Cc1ccccc1)Cc1ccccc1)Cc1ccccc1)Cc1ccccc1)Cc1ccccc1)Cc1ccccc1)Cc1ccccc1)Cc1ccccc1 [Peptoid 33, (NhArgNpheNphe)4] (H-[NhArg][Nphe][Nphe][NhArg][Nphe][Nphe][NhArg][Nphe][Nphe][NhArg][Nphe][Nphe]-NH2)	HaCaT cells	>100 µM
NCCCCNCC(=O)N(CC(=O)N(CC(=O)N(CCCCN)CC(=O)N(CC(=O)N(CC(=O)N(CCCCN)CC(=O)N(CC(=O)N(CC(N)=O)Cc1ccccc1)Cc1ccccc1)Cc1ccccc1)Cc1ccccc1)Cc1ccccc1)Cc1ccccc1 [Peptoid 5, (NLysNpheNphe)3]	HaCaT cells	>100 µM
C[C@@H](c1ccccc1)N(CC(N)=O)C(=O)CN(C(=O)CN(CCCCCCN)C(=O)CN(C(=O)CN(C(=O)CN(CCCCCCN)C(=O)CN(C(=O)CN(C(=O)CNCCCCCCN)[C@@H](C)c1ccccc1)[C@@H](C)c1ccccc1)[C@@H](C)c1ccccc1)[C@@H](C)c1ccccc1)[C@@H](C)c1ccccc1 [Peptoid 11, (NahNspeNspe)3] (H-[Gly(N-(CH2)6NH2)][Nspe][Nspe][Gly(N-(CH2)6NH2)][Nspe][Nspe][Gly(N-(CH2)6NH2)][Nspe][Nspe]-NH2)	HaCaT cells	>100 µM

Items follow; give ED50 HaCaT for each.
1. NCCCCCCNCC(=O)N(CC(=O)N(CC(=O)N(CCCCCCN)CC(=O)N(CC(=O)N(CC(N)=O)Cc1ccccc1)Cc1ccccc1)Cc1ccccc1)Cc1ccccc1 [Peptoid 3, (NahNpheNphe)2] (H-[Gly(N-(CH2)6NH2)][Nphe][Nphe][Gly(N-(CH2)6NH2)][Nphe][Nphe]-NH2)
2. NCCNCC(=O)N(CC(=O)N(CC(=O)N(CCN)CC(=O)N(CC(=O)N(CC(=O)N(CCN)CC(=O)N(CC(=O)N(CC(N)=O)Cc1ccccc1)Cc1ccccc1)Cc1ccccc1)Cc1ccccc1)Cc1ccccc1)Cc1ccccc1 [Peptoid 8, (NaeNpheNphe)3] (H-[Gly(N-2-aminoethyl)][Nphe][Nphe][Gly(N-2-aminoethyl)][Nphe][Nphe][Gly(N-2-aminoethyl)][Nphe][Nphe]-NH2)

1. >100 µM
2. >100 µM
